biological target: EGFR T790M L858R (Homo sapiens, UniProt P00533, L858R/T790M); assay: EGFR T790M L858R biochemical assay (Caliper mobility shift); settings: 5 μM ATP; apparent Ki (Morrison fit) converted by Cheng-Prusoff, Km of ATP 1.3 μM
Sequence (P00533 25-1210 T790M/L858R): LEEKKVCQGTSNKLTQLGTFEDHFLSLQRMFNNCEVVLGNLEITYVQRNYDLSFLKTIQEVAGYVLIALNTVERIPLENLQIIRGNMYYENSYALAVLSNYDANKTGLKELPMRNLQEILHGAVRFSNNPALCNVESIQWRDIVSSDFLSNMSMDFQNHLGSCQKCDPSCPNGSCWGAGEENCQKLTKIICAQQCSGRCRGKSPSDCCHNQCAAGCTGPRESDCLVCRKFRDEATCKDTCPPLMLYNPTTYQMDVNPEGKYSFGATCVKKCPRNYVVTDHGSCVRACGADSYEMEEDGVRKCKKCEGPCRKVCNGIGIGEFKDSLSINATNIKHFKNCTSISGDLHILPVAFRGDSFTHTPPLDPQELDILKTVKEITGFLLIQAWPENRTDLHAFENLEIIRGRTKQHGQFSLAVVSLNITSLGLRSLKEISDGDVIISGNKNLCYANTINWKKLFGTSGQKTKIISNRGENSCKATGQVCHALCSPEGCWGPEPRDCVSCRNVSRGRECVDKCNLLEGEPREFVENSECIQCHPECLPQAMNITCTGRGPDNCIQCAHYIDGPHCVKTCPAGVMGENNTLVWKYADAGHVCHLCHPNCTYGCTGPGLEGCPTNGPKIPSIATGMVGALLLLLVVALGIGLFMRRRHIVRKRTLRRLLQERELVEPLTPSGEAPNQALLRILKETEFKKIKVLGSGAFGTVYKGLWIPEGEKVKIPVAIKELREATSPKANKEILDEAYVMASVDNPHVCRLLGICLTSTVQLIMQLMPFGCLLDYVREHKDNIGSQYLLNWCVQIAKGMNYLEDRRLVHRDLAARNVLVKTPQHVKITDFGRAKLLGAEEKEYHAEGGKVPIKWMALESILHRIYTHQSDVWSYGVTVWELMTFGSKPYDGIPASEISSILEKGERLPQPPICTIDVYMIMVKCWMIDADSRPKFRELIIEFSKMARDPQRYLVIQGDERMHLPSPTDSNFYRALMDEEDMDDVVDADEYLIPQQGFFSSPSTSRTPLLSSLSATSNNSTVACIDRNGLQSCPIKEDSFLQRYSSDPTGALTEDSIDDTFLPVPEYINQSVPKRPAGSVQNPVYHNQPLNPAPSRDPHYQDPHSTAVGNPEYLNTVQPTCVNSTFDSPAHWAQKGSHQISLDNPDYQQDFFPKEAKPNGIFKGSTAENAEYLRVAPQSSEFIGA
pKi: −log10 of the molar value.
Measured parameter: pKi

Observe how each entry below is paired with its result.
CC(C)n1nc(N2CC3(COC3)C2)c2cnc(Nc3ccnc(N4CCC(O)C(C)(C)C4)n3)cc21 (centres unmarked): 8.85
COC1CCN(c2nccc(Nc3cc4c(cn3)c(N3CCCC3)nn4C(C)C)n2)CC1: 8.92
CC(C)n1nc(N[C@H]2CCOC2)c2cnc(Nc3ccnc(-c4cnn(S(=O)(=O)C5CC5)c4)n3)cc21: 8.96

[I] C[C@H](n1nc(N2CC[C@@H](O)C2)c2cnc(Nc3ccnc(N4CC[C@H](O)[C@H](F)C4)n3)cc21)C(F)(F)F (relative stereo)
[II] CC(C)n1nc(N2CC(C(=O)N3CC[C@@H](CO)C3)C2)c2cnc(Nc3ccnc(-c4cnn(S(=O)(=O)C5CC5)c4)n3)cc21
Of the pair I and II , name the member with the lesser recorded pKi. Give the label under which the chosen entry appears.
I
(I: 8.80, II: 9.15)
